Each recorded value in this set is attributed to ChEMBL document CHEMBL4689842.

# System: Fibroblast
# experimentDescription: Multiplex assay against human fibroblast
# Assay type: toxicity, cell-based
# conditionSummary: 24 h, 10 µM, compound concentration 10 uM, replicate 2
recordedMetric: Population Normal (%)
Answer in %, number only, no unit symbol.

Incoming: Using known records, supply Population Normal (%) for CC(C)Oc1ccccc1C(=O)Nc1ccccc1C(=O)Nc1cccc(S(=O)(=O)C(F)(F)F)c1
Outgoing: 88

Incoming: Please look at this compound and report its Population Normal (%): CC(C)CC(=O)Nc1[nH]nc2c1CN(C(=O)C1CCN(C)CC1)C2(C)C
Outgoing: 67

Incoming: // Input: C=CC(=O)Nc1cccc(Sc2nc(Nc3ccc(N4CCN(C)CC4)cc3)ncc2Cl)c1 . Output its Population Normal (%) only.
Outgoing: 65

Incoming: Note down Population Normal (%) recorded for Cc1cccc(CN2CCN(C(c3ccccc3)c3ccc(Cl)cc3)CC2)c1.Cl.Cl (centres undefined)
Outgoing: 94

###

# Test system: HEK-293T
# experimentDescription: Multiplex assay against HEK293T;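 also: share of the cells with healthy nuclei that show this phenotype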
# Assay type: toxicity, cell-based
# conditionSummary: human, 24 h, 10 µM, compound concentration 10 uM, replicate 1
recordedMetric: Population Tubulin-Different-Phenotype (%)
Give just the numeric value; % need not be written.

Incoming: // fetch Population Tubulin-Different-Phenotype (%) for COC(=O)C1=C(C)NC(C)=C(C(=O)OCCCN2CCC(c3ccccc3)(c3ccccc3)CC2)[C@H]1c1cccc([N+](=O)[O-])c1 [NIGULDIPINE] ; system: HEK-293T
Outgoing: 77

Incoming: Report Population Tubulin-Different-Phenotype (%) from HEK-293T testing of C=CC(=O)Nc1cccc(Oc2nc(Nc3ccc(N4CCN(C)CC4)cc3OC)ncc2Cl)c1
Outgoing: 23

Incoming: Retrieve Population Tubulin-Different-Phenotype (%) on HEK-293T; query C[C@]12CC[C@@H]3c4ccc(O)cc4CC[C@H]3[C@@H]1CC[C@@H]2O [ESTRADIOL]
Outgoing: 39

Incoming: Give the observed Population Tubulin-Different-Phenotype (%) of O=C(c1cc2c(cc1F)OC(c1ccc(F)cc1)(c1ccc(Cl)cc1Cl)O2)N1CCOCC1 (configuration not stated) for HEK-293T.
Outgoing: 95

Incoming: # assay system HEK-293T: give Population Tubulin-Different-Phenotype (%) of CC1=C(C(=O)Nc2cc3cn[nH]c3cc2F)C(c2ccc(C(F)(F)F)cc2)CC(=O)N1 (configuration not stated)
Outgoing: 41

Incoming: Give measured Population Tubulin-Different-Phenotype (%) for O=c1cc(N2CCOCC2)oc2c(-c3cccc4c3sc3ccccc34)cccc12 (HEK-293T).
Outgoing: 100

Incoming: Consider the compound COc1cc2ncn(-c3cc(OCc4ccccc4C(F)(F)F)c(C(N)=O)s3)c2cc1OC [GW843682X] tested on HEK-293T; state its Population Tubulin-Different-Phenotype (%).
Outgoing: 90

###

# System: Fibroblast
# experimentDescription: Multiplex assay against human fibroblast
# Format: toxicity, cell-based
# conditionSummary: 12 h, 1 µM, compound concentration 1 uM, replicate 1
Please provide measured Population Membrane Permeable-Phenotype (%) for the entries that follow.
Write the value in % as a bare number.

Incoming: Read off the recorded Population Membrane Permeable-Phenotype (%) for Cc1cccc(CN2CCN(C(c3ccccc3)c3ccc(Cl)cc3)CC2)c1.Cl.Cl (stereo unspecified)
Outgoing: 34

Incoming: Look up and state reported Population Membrane Permeable-Phenotype (%) for CC(C)CC(=O)Nc1[nH]nc2c1CN(C(=O)C1CCN(C)CC1)C2(C)C
Outgoing: 4

Incoming: Give a short answer stating reported Population Membrane Permeable-Phenotype (%) for Cl.O=C(O)c1cc(-c2ccc(C3CCNCC3)cc2)c2ccc(-c3ccc(C(F)(F)F)cc3)cc2c1 .
Outgoing: 31

Incoming: Given CNC(=O)Nc1ccc2c(c1)[C@@]1(CC2)OC(=O)N(CC(=O)N(Cc2ccc(F)cc2)[C@@H](C)C(F)(F)F)C1=O , respond with its Population Membrane Permeable-Phenotype (%).
Outgoing: 31

Incoming: Retrieve Population Membrane Permeable-Phenotype (%) measured for CNC(=O)Nc1ccc(-c2nc(N3CC4CCC(C3)O4)c3cnn(C4CCC5(CC4)OCCO5)c3n2)cc1 and print it.
Outgoing: 29

Incoming: Retrieve Population Membrane Permeable-Phenotype (%) measured for CC(C)(C)NC[C@H](O)COc1nsnc1N1CCOCC1 and print it.
Outgoing: 14

Incoming: Identify measured Population Membrane Permeable-Phenotype (%) corresponding to CCc1nn(CCCN2CCN(c3cccc(Cl)c3)CC2)c(=O)n1CCOc1ccccc1.Cl [NEFAZODONE HYDROCHLORIDE]
Outgoing: 31

Incoming: Look up and state reported Population Membrane Permeable-Phenotype (%) for CCOC(=O)Nc1cc(-c2ccc(C)c(NS(C)(=O)=O)c2)nn2c(C)nnc12
Outgoing: 9

Incoming: Retrieve Population Membrane Permeable-Phenotype (%) measured for CC(C)Oc1ccccc1C(=O)Nc1ccccc1C(=O)Nc1cccc(S(=O)(=O)C(F)(F)F)c1 and print it.
Outgoing: 16

Incoming: Look up and report measured Population Membrane Permeable-Phenotype (%) for this entry: CC(C)OC(=O)N1CCC(Oc2ncnc3c2cnn3-c2ccc(S(C)(=O)=O)cc2F)CC1
Outgoing: 27

Incoming: Respond only with Population Membrane Permeable-Phenotype (%) recorded for COc1cc(Nc2nccc(-c3cnn4nc(OC)ccc34)n2)cc(C(F)(F)F)c1
Outgoing: 25

Incoming: State its Population Membrane Permeable-Phenotype (%): COc1ccc(-c2ccc3ncc4c(c3c2)n(-c2ccc(N3CCNCC3)c(C(F)(F)F)c2)c(=O)n4C)cn1.O=C(O)/C=C\C(=O)O
Outgoing: 26

Incoming: Using the record for C=CC(=O)Nc1ccc2[nH]c(=O)n(C3CCN(Cc4ccc(-c5nc6cc[nH]c(=O)c6cc5-c5ccccc5)cc4)CC3)c2c1 , state its measured Population Membrane Permeable-Phenotype (%).
Outgoing: 10

Incoming: Name the recorded Population Membrane Permeable-Phenotype (%) of the molecule listed here: O=c1[nH]c2ccccc2n1C1CCN(Cc2ccc(-c3[nH]c4cc5ncnc5cc4nc3-c3ccccc3)cc2)CC1
Outgoing: 6

Incoming: Determine its reported Population Membrane Permeable-Phenotype (%): Cc1nc(N2CC[C@H](O)C2)ncc1-c1cc(C(F)(F)F)cc2[nH]ncc12
Outgoing: 10

Incoming: Identify the reported Population Membrane Permeable-Phenotype (%) for the following entry. CC(C)c1noc(N2CCC(COc3ccc(-c4ccc(S(C)(=O)=O)cc4)nc3)CC2)n1
Outgoing: 21

Incoming: Give reported Population Membrane Permeable-Phenotype (%) value for CCCSc1nc(N[C@@H]2C[C@H]2c2ccc(F)c(F)c2)c2nnn([C@@H]3C[C@H](OCCO)[C@@H](O)[C@H]3O)c2n1
Outgoing: 21

Incoming: Give recorded Population Membrane Permeable-Phenotype (%). COc1ccccc1CN[C@H]1C2CCN(CC2)[C@H]1C(c1ccccc1)c1ccccc1
Outgoing: 27

Incoming: Look up and state reported Population Membrane Permeable-Phenotype (%) for C[C@]12CC[C@@H]3c4ccc(O)cc4CC[C@H]3[C@@H]1CC[C@@H]2O
Outgoing: 20

Incoming: For the molecule CC(C)NC(=O)N1CC[C@H](NC2=Nc3cc(F)ccc3N(CC(F)F)c3ccc(Cl)cc32)C1 , report Population Membrane Permeable-Phenotype (%).
Outgoing: 4

Incoming: Note Population Membrane Permeable-Phenotype (%) for the molecule shown: COC(=O)C1=C(C)NC(C)=C(C(=O)OCCCN2CCC(c3ccccc3)(c3ccccc3)CC2)[C@H]1c1cccc([N+](=O)[O-])c1
Outgoing: 2

###

Task for the reader: assign each of the following compounds its reported Population Mitochondria Different-Phenotype (%).
# System: U2OS
# experimentDescription: Multiplex assay against U2OS
# Type: toxicity, cell-based
# conditionSummary: human, 24 h, 1 µM, compound concentration 1 uM, replicate 1
Answer with the value and then the unit.

Incoming: Determine its reported Population Mitochondria Different-Phenotype (%): Cc1c[nH]c2nccc(Oc3c(F)cc(Nc4cc(Cl)nc(N)n4)cc3F)c12
Outgoing: 10%

Incoming: # return recorded Population Mitochondria Different-Phenotype (%) for input CC(C)OC(=O)N1CCC(Oc2ncnc3c2cnn3-c2ccc(S(C)(=O)=O)cc2F)CC1
Outgoing: 5%

Incoming: Assign Population Mitochondria Different-Phenotype (%) to the following record: CCOC(=O)Nc1cc(-c2ccc(C)c(NS(C)(=O)=O)c2)nn2c(C)nnc12
Outgoing: 32%

Incoming: Look up and state reported Population Mitochondria Different-Phenotype (%) for CNC(=O)Nc1ccc2c(c1)[C@@]1(CC2)OC(=O)N(CC(=O)N(Cc2ccc(F)cc2)[C@@H](C)C(F)(F)F)C1=O
Outgoing: 14%

Incoming: Given COC(=O)C1=C(C)NC(C)=C(C(=O)OCCCN2CCC(c3ccccc3)(c3ccccc3)CC2)[C@H]1c1cccc([N+](=O)[O-])c1 , respond with its Population Mitochondria Different-Phenotype (%).
Outgoing: 98%

Incoming: Item O=c1cc(N2CCOCC2)oc2c(-c3cccc4c3sc3ccccc34)cccc12 : provide Population Mitochondria Different-Phenotype (%)
Outgoing: 7%

Incoming: Recall and state the measured Population Mitochondria Different-Phenotype (%) for CC1=C(C(=O)Nc2cc3cn[nH]c3cc2F)C(c2ccc(C(F)(F)F)cc2)CC(=O)N1 (stereo not drawn) .
Outgoing: 9%

Incoming: Using the record for COc1ccccc1CN[C@H]1C2CCN(CC2)[C@H]1C(c1ccccc1)c1ccccc1 , state its measured Population Mitochondria Different-Phenotype (%).
Outgoing: 13%

Incoming: Retrieve Population Mitochondria Different-Phenotype (%) measured for CC(C)c1noc(N2CCC(COc3ccc(-c4ccc(S(C)(=O)=O)cc4)nc3)CC2)n1 and print it.
Outgoing: 11%

Incoming: Consider the compound CC(C)CC(=O)Nc1[nH]nc2c1CN(C(=O)C1CCN(C)CC1)C2(C)C and give its recorded Population Mitochondria Different-Phenotype (%).
Outgoing: 24%

Incoming: For the compound C=CC(=O)Nc1cccc(Sc2nc(Nc3ccc(N4CCN(C)CC4)cc3)ncc2Cl)c1 , give its measured Population Mitochondria Different-Phenotype (%) value.
Outgoing: 96%

Incoming: Item CC(C)NC(=O)N1CC[C@H](NC2=Nc3cc(F)ccc3N(CC(F)F)c3ccc(Cl)cc32)C1 : provide Population Mitochondria Different-Phenotype (%)
Outgoing: 28%

Incoming: Kindly indicate its recorded Population Mitochondria Different-Phenotype (%). Item: O=C(c1cc2c(cc1F)OC(c1ccc(F)cc1)(c1ccc(Cl)cc1Cl)O2)N1CCOCC1 (stereo not drawn)
Outgoing: 14%

Incoming: // Input: CCCSc1nc(N[C@@H]2C[C@H]2c2ccc(F)c(F)c2)c2nnn([C@@H]3C[C@H](OCCO)[C@@H](O)[C@H]3O)c2n1 . Output its Population Mitochondria Different-Phenotype (%) only.
Outgoing: 10%

Incoming: Read the entry C[C@]12CC[C@@H]3c4ccc(O)cc4CC[C@H]3[C@@H]1CC[C@@H]2O and write its reported Population Mitochondria Different-Phenotype (%).
Outgoing: 6%

Incoming: Tell me Population Mitochondria Different-Phenotype (%) reported for CNC(=O)Nc1ccc(-c2nc(N3CC4CCC(C3)O4)c3cnn(C4CCC5(CC4)OCCO5)c3n2)cc1
Outgoing: 14%

Incoming: Recall and state the measured Population Mitochondria Different-Phenotype (%) for COc1cc(Nc2nccc(-c3cnn4nc(OC)ccc34)n2)cc(C(F)(F)F)c1 .
Outgoing: 20%

Incoming: Determine its reported Population Mitochondria Different-Phenotype (%): CC(C)(C)NC[C@H](O)COc1nsnc1N1CCOCC1
Outgoing: 7%
